# Test system: primary human airway basal cells (HBEC, luciferase-transduced)
# test-method-notes: proliferation (luciferase bioluminescence) Z score relative to plate mean; higher = more proliferation / more cells, active = 1.96 or more
# particulars: donor: 1; 0.5 µM; library: ENZO Libraries; 4 days
Would you mind labelling by proliferation? At or over -0.2 is met, under is not met.

Could you tell me if the measured proliferation of CCCCCCCCCCCCC/C=C/[C@@H](O)[C@@H](N)CO reaches -0.2 or more?
met

Could you tell me if the measured proliferation of C[C@H](CS)C(=O)N1CCC[C@H]1C(=O)O reaches -0.2 or more?
not met

Could you tell me if the measured proliferation of O=C(CCCCCCC(=O)NO)NO [Suberoyl bis-hydroxamic acid] reaches -0.2 or more?
met

Could you tell me if the measured proliferation of CC(C)c1cc(/C=C(\C#N)C(=O)NCCCc2ccccc2)cc(C(C)C)c1O reaches -0.2 or more?
not met

Could you tell me if the measured proliferation of NC(N)=NCCC[C@H](NC(=O)[C@@H]1CCCN1C(=O)[C@H](N)Cc1ccccc1)C(=O)CCl reaches -0.2 or more?
met

Could you tell me if the measured proliferation of CC1CNc2c(cccc2S(=O)(=O)N[C@@H](CCCNC(=N)N)C(=O)N2CC[C@@H](C)C[C@@H]2C(=O)O)C1 (some centres undefined) reaches -0.2 or more?
met

Could you tell me if the measured proliferation of O=C1Cc2c([nH]c3ccc(Br)cc23)-c2ccccc2N1 reaches -0.2 or more?
met

Could you tell me if the measured proliferation of O=C(NCCCCN1CCOCC1)c1cc2ccccc2o1 reaches -0.2 or more?
not met

Could you tell me if the measured proliferation of CC(=O)Nc1ccc(C(=O)Nc2ccccc2N)cc1 reaches -0.2 or more?
met

---

Could you please report measured proliferation for the items listed next?
# Test system: primary human airway basal cells (HBEC, luciferase-transduced)
# test-method-notes: proliferation (luciferase bioluminescence) Z score relative to plate mean; higher = more proliferation / more cells, active = 1.96 or more
# particulars: donor: 1; 0.5 µM; library: ENZO Libraries; 4 days
Where a name gives a salt, the structure may show the parent alone.

What measured proliferation is associated with C=C1C(=O)O[C@@H](CCC)[C@@H]1C(=O)O on primary human airway basal cells (HBEC, luciferase-transduced)?
-0.342 (inactive)

What measured proliferation is associated with CC(C)CCNC(=O)[C@H](CC(C)C)NC(=O)[C@H]1O[C@@H]1C(=O)O on primary human airway basal cells (HBEC, luciferase-transduced)?
-0.298 (inactive)

What measured proliferation is associated with O=C(O)c1cc(NCc2cc(O)ccc2O)ccc1O [2-Hydroxy-5-(25-dihydroxybenzylamino)benzoic acid] on primary human airway basal cells (HBEC, luciferase-transduced)?
-0.149 (inactive)

What measured proliferation is associated with Nc1ccc(CC(CC(=O)O)C(=O)O)cc1 (configuration not stated) on primary human airway basal cells (HBEC, luciferase-transduced)?
0.379 (inactive)

What measured proliferation is associated with Nc1c(O)cc(O)cc1C=Cc1ccc(O)cc1 [Aminoresveratrol sulfate] on primary human airway basal cells (HBEC, luciferase-transduced)?
0.00314 (inactive)

What measured proliferation is associated with CC1(C)C[C@@H]1C(=O)N/C(=C\CCCCSC[C@H](N)C(=O)O)C(=O)O on primary human airway basal cells (HBEC, luciferase-transduced)?
-0.499 (inactive)

What measured proliferation is associated with Oc1c2ccccc2c2c3c(cccc13)N=N2 on primary human airway basal cells (HBEC, luciferase-transduced)?
0.134 (inactive)
